Data origin: patent US9409892B2

measured.target: UniProt Q96KS0
Sequence (Q96KS0 whole entry): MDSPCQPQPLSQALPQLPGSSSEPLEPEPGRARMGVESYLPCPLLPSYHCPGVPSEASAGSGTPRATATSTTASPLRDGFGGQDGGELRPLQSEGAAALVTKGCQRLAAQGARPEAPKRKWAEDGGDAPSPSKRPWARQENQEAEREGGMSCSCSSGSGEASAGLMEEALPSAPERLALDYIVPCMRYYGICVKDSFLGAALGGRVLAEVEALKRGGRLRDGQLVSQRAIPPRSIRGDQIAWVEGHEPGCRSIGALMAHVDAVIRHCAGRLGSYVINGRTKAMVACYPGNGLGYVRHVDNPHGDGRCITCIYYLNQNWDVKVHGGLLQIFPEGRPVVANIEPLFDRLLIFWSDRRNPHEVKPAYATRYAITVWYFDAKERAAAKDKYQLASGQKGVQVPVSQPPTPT
protocol.notes: HIF-PH assay (14CO2 capture), PHD1 enzyme inhibition
Type: biochemical
experimental.setup: Table 1; individual measurement; read-out: IC50 (μM) PHD1
Measured log10(IC50) values are reported for all entries that follow.
Give log10 of IC50, with IC50 taken in µM.

>  <molecule>
N#Cc1nc(C(=O)NCC2(C(=O)O)CCC2)c(O)c2ccc(Oc3ccccc3)cc12 [Compound 14]

>  <log10(IC50)>
-0.51

$$$$

Q: Please report the recorded log10(IC50) for CC(C)(CNC(=O)c1nc(C#N)c2cc(Oc3ccc(F)cc3)ccc2c1O)C(=O)O [Compound 101] .
A: -0.39

Q: Entry to check: CC(C)(CNC(=O)c1nc(-c2cncc(F)c2)c2cc(Oc3ccccc3)ccc2c1O)C(=O)O [Compound 136]
A: 0.86

Q: Entry to check: COc1ccc(CNc2ccc3c(O)c(C(=O)NCC(C)(C)C(=O)O)ncc3c2)cc1 [Compound 126]
A: 1.53

Q: Entry to check: CC(C)(CNC(=O)c1nc(C#N)c2cc(S(=O)(=O)C3CCCCC3)ccc2c1O)C(=O)O [Compound 160]
A: 1.24

Q: Entry to check: Cc1cccc(C)c1Oc1ccc2c(C#N)nc(C(=O)NCCC(=O)O)c(O)c2c1 [Compound 109]
A: 0.81

Q: Entry to check: N#Cc1nc(C(=O)NCCC[C@H](N)C(=O)O)c(O)c2ccc(Oc3ccccc3)cc12.O=C(O)C(F)(F)F [Compound 163]
A: 1.64
